Provenance of the data: the supplement of paper PMC10899765

# Test system: MCF10A
# PROTOCOL SUMMARY: one-nucleolus phenotype percent effect (relative to siNT 0% and siNOL11 100%); higher = more cells with one nucleolus (ribosome biogenesis inhibition)
# MEASUREMENT CONDITIONS: 20 nM; 72 h
ENDPOINT LABEL: one-nucleolus phenotype percent effect (%)

| SEQUENCE | TGT | ASSAY VALUE |
| --- | --- | --- |
| UGUCUACAUUAAUGAAAAGAGC [hsa-miR-3618] | MCF10A | 16.7 |
| UGCGGCCGGUGCUCAACCUGC [hsa-miR-1199-3p] | MCF10A | 23.8 |
| AGGGCCAGAGGAGCCUGGAGUGG [hsa-miR-4726-5p] | MCF10A | 5.63 |
| GGGGAAAGCGAGUAGGGACAUUU [hsa-miR-3153] | MCF10A | -1 |
| UGCAACGAACCUGAGCCACUGA [hsa-miR-891a] | MCF10A | -1.85 |
| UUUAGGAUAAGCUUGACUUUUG [hsa-miR-651] | MCF10A | -20.4 |
| CAUAGCCCGGUCGCUGGUACAUGA [hsa-miR-3651] | MCF10A | 17.1 |
| CCCCGGGGAGCCCGGCG [hsa-miR-4532] | MCF10A | -24.8 |
| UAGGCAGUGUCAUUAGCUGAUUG [hsa-miR-34b-5p] | MCF10A | 35.6 |
| AAUGUGUAGCAAAAGACAGA [hsa-miR-511-3p] | MCF10A | 55.2 |
| CUAGUGAGGGACAGAACCAGGAUUC [hsa-miR-921] | MCF10A | 31.9 |
| CCCGCAGGUGAGAUGAGGGCU [hsa-miR-6886-5p] | MCF10A | 9.43 |
| CUCUCUACUGACUUGCAACAUA [hsa-miR-4684-5p] | MCF10A | -6.81 |
| GAAGUUGCCCAUGUUAUUUUCG [hsa-miR-495-5p] | MCF10A | 1.67 |
| ACUGCAUUAUGAGCACUUAAAG [hsa-miR-20a-3p] | MCF10A | -23.3 |
| UAAAGAACUCUUAAAACCCAAU [hsa-miR-3133] | MCF10A | -22.2 |
| AAUGGCGCCACUAGGGUUGUG [hsa-miR-652-3p] | MCF10A | 7.39 |
| GCAGUUCUGAGCACAGUACAC [hsa-miR-4277] | MCF10A | -25 |
| GAGGCAGAAGCAGGAUGACA [hsa-miR-1910-3p] | MCF10A | 25.3 |
| UACAGUAUAGAUGAUGUACU [hsa-miR-144-3p] | MCF10A | -2.3 |
| UGCCGCCCUCUCGCUGCUCUAG [hsa-miR-4632-3p] | MCF10A | 7.5 |
| UAUUGCACAUUACUAAGUUGCA [hsa-miR-32-5p] | MCF10A | -7.37 |
| UUGCUCACUGUUCUUCCCUAG [hsa-miR-1178-3p] | MCF10A | 0.794 |
| CAGGAGUGGGGGGUGGGACGU [hsa-miR-4433b-3p] | MCF10A | -5.4 |
